# maps each entry to its Kd
# STUDY SYSTEM: human TYK2 (JH2domain-pseudokinase) (Homo sapiens (Human), UniProt P29597)
# Sequence (P29597 556-888): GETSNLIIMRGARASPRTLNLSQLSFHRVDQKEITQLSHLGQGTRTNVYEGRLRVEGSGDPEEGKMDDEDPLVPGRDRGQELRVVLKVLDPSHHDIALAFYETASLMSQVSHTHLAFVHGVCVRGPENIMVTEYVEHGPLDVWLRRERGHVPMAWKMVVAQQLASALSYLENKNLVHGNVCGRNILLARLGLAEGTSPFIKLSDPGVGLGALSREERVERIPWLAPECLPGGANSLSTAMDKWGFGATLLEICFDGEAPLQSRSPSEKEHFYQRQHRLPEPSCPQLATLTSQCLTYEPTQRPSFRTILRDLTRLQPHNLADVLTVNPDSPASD
# ASSAY NAME: TYK2 JH2 Domain Binding Assay (KINOMEscan)

Known results for compounds:
{"COMPOUND": "NC(=O)c1cnn2c(N)cc(Nc3cc(Cl)cnc3OC3CCC3)nc12 [I-81]", "OBSERVABLE": "Kd", "RESULT": "1 to 10 nM"}
{"COMPOUND": "CNc1cc(Nc2cccn(-c3ccon3)c2=O)nc2c(C(N)=O)cnn12 [I-43]", "OBSERVABLE": "Kd", "RESULT": "< 0.2 nM"}
{"COMPOUND": "CNc1cc(Nc2cccnc2OCCOC)nc2c(C(=O)NC3CCC3)cnn12 [I-219]", "OBSERVABLE": "Kd", "RESULT": "< 0.2 nM"}
{"COMPOUND": "CNc1cc(Nc2cc(C)cn(-c3ccn(C)n3)c2=O)nc2c(C(N)=O)cnn12 [I-26]", "OBSERVABLE": "Kd", "RESULT": "< 0.2 nM"}
{"COMPOUND": "CNc1cc(Nc2cccn(-c3cccnc3C)c2=O)nc2c(C(=O)NC3CC3)cnn12 [I-812]", "OBSERVABLE": "Kd", "RESULT": "1 to 10 nM"}

State the recorded Kd for this entry: CNc1cc(Nc2c(F)ccn(C(C)C)c2=O)nc2c(C(=O)NC3CC3)cnn12 [I-623]
1 to 10 nM

State the recorded Kd for this entry: CNc1cc(Nc2cccn([C@H]3CC[C@@H]3O)c2=O)nc2c(C(=O)N[C@@H]3C[C@@H]3F)cnn12 [I-998]
< 0.2 nM

State the recorded Kd for this entry: CNc1cc(Nc2cccn([C@@H]3CCC[C@@H](OC)C3)c2=O)nc2c(C(=O)N[C@@H]3CC[C@H]3OC)cnn12 [I-1330]
< 0.2 nM
